Reference source for all entries: paper PMC10095357

# Test System: Human recombinant sEH (Homo sapiens, UniProt P34913)
# Construct: purchased Cayman Chemical (Ann Arbor, MI, USA) 10011669
# Sequence (P34913 whole entry): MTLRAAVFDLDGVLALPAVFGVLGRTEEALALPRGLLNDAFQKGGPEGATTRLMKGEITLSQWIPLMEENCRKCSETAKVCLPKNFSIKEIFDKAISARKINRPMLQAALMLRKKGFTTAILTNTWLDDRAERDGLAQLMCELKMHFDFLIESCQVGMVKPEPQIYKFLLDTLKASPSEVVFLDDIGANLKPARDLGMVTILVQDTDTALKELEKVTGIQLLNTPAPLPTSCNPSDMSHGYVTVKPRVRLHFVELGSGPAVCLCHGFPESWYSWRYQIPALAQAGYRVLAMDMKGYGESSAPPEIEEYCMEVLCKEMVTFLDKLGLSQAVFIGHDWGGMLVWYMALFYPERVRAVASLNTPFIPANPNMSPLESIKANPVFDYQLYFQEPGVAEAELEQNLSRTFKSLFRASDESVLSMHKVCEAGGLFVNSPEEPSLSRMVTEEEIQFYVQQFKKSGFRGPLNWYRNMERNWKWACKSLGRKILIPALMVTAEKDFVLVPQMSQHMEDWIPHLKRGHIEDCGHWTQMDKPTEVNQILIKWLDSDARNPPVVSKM
# Assay Text: sEH assay (fluorescent substrate hydrolysis, inhibitory activity and IC50)
# Assay type: biochemical
# Experimental Parameters: compound at 100 μM; tested three times; read-out: Inhibitory Activity at 100 μM (%)
Measured Property: inhibition at 100 µM (%)

Worked examples follow.
Dear colleague, please send me the reported inhibition at 100 µM for COc1ccc(-c2coc3cc(O[C@@H]4O[C@H](CO)[C@@H](O)[C@H](O)[C@H]4O)ccc3c2=O)cc1 [Compound 8, ononin] when you can. 60.7

Dear colleague, please send me the reported inhibition at 100 µM for O=C(/C=C/c1ccc(O[C@@H]2O[C@H](CO)[C@@H](O)[C@H](O)[C@H]2O)cc1)c1ccc(O)cc1O [Compound 5, isoliquiritin] when you can. 80.2

(a) O=C1C[C@@H](c2ccc(O[C@@H]3O[C@H](CO)[C@@H](O)[C@H](O)[C@H]3O)cc2)Oc2cc(O)ccc21 [Compound 2, liquiritin]
(b) COc1c(CC=C(C)C)c(O)cc2oc(=O)c3c4ccc(O)cc4oc3c12 [Compound 9, glycyrol]
// task: argmin of inhibition at 100 µM over [ a , b ] Please reply using the label of the selected record. a
